# Tested on: MCF10A
# assayName: percent viability (nuclei count relative to siNT); higher = more viable cells
# runConditions: 20 nM; 72 h
measure: percent viability (%)
Lab book: enter the figure in %, no units written.

Past entries and their recorded results:
Incoming: percent viability of CCUCACCAUCCCUUCUGCCUGC [hsa-miR-6511a-3p] on MCF10A?
Outgoing: 41.3

Incoming: percent viability of AAGAAGAGACUGAGUCAUCGAAU [hsa-miR-5197-3p] on MCF10A?
Outgoing: 24.8

Incoming: percent viability of UGGAAGGGAGAAGAGCUUUAAU [hsa-miR-3202] on MCF10A?
Outgoing: 21.6

Incoming: percent viability of AAGUAGUUGGUUUGUAUGAGAUGGUU [hsa-miR-1244] on MCF10A?
Outgoing: 44.6

Incoming: percent viability of AGCUCCCUGAAUCCCUGUCCCAG [hsa-miR-7106-3p] on MCF10A?
Outgoing: 74.6

Incoming: percent viability of CCUGGACACCGCUCAGCCGGCCG [hsa-miR-4638-3p] on MCF10A?
Outgoing: 106

Incoming: percent viability of GGAGACUGAUGAGUUCCCGGGA [hsa-miR-873-3p] on MCF10A?
Outgoing: 106

Incoming: percent viability of CCCCAGGGCGACGCGGCGGG [hsa-miR-1915-3p] on MCF10A?
Outgoing: 87.8

Continuing:
Incoming: percent viability of AAGGGAGGAGGAGCGGAGGGGCCCU [hsa-miR-4739] on MCF10A?
Outgoing: 19.6

Incoming: percent viability of UGGGGAUUUGGAGAAGUGGUGA [hsa-miR-4450] on MCF10A?
Outgoing: 16.5

Incoming: percent viability of AUUGCCUCUGUUCUAACACAAG [hsa-miR-3152-5p] on MCF10A?
Outgoing: 129
